Biological target: Thiamine-binding periplasmic protein (Escherichia coli (strain K12))
Sequence (P31550 whole entry): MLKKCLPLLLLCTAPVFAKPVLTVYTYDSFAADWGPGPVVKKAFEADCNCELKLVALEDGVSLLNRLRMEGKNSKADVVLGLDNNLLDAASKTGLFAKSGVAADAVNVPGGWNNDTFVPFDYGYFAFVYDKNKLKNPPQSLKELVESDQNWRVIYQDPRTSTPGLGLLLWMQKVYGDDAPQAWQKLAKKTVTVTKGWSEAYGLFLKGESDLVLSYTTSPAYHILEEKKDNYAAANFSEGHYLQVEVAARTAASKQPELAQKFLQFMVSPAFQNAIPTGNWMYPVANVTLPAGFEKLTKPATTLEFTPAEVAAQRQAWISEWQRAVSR
Assay: Titration Assay
reported-endpoint: pKd
Remember the convention: pKd equals -log10 of concentration in molar.

INSERT INTO assay_data (compound, assayed_system, reported_endpoint, recorded_value) VALUES
  ('Cc1ncc(C[n+]2csc(CCO)c2C)c(N)n1 [Vitamin B 1]', 'Thiamine-binding periplasmic protein (Escherichia coli (strain K12))', 'pKd', 8.42);

Per the record, Cc1ncc(C[n+]2csc(CCO[P@](=O)(O)OP(=O)(O)O)c2C)c(N)n1 [ThDP] has pKd of 8.13
